Test system: Caupolican (Caup) homeodomain DNA-binding domain
Sequence: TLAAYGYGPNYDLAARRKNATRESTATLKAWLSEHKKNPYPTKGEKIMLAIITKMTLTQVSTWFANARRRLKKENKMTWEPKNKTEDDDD
Experiment: PBM E-score (8-mer, recovered from the published 9-mer minima) (E-score (dimensionless, -0.5 to 0.5)); Drosophila protein; higher = stronger relative binding preference, active = 0.31 or more
This excerpt belongs to a sample that is enriched for hits. No count for the full screen is at hand.
Please reply with one of these outcomes: active, inactive

Some solved entries appear below for comparison.
{"columns": ["sequenceCode", "discreteLabel"],
 "data": [
  ["CTGTTACC", "inactive"],
  ["CATGTCAC", "active"]
]}

Tell me the assay call for `AGGTTACG` please. inactive

What do we get for `CTCATAAA` ? inactive

What do we get for `AGGAGTTG` ? inactive

What do we get for `CTTGTCAC` ? active

What do we get for `ATATTACG` ? inactive

What do we get for `AGTGTCAC` ? inactive

What do we get for `CGAATAGA` ? inactive

What do we get for `GCATTACA` ? inactive

What do we get for `CGATGTTA` ? inactive

What do we get for `GAGTTACA` ? inactive

What do we get for `AGTAAGAC` ? inactive

What do we get for `ACATTACA` ? active

What do we get for `GTAGCAAC` ? inactive

What do we get for `GCTAAGAC` ? inactive

What do we get for `ACGTTACG` ? inactive

What do we get for `ACCACCAC` ? inactive

What do we get for `GATCGCAC` ? inactive

What do we get for `ACCGCGGA` ? inactive

What do we get for `AACATGTA` ? active

What do we get for `ATGTTACG` ? active

What do we get for `ATATTACC` ? inactive

What do we get for `GTTAACAA` ? inactive
